- Species: Homo sapiens
- assay.details: Compound was tested for the inhibition of C5a- induced human neutrophil activation
- Assay type: functional
reported.endpoint: EC50 (µg/mL)
Give your result in µg/mL as a bare value.

*Q* Name the reported EC50 value associated with the compound Cc1cc(N)c2cc(NC(=O)/C=C/c3ccccc3C(F)(F)F)ccc2n1
*A* 4

*Q* Try this compound next: Cc1cc(N)c2cc(NC(=O)/C=C/c3c(Cl)cccc3Cl)ccc2n1
*A* 4

*Q* Try this compound next: Cc1cc(N)c2cc(NC(=O)C(=O)Nc3ccc4nc(C)cc(N)c4c3)ccc2n1
*A* 4

*Q* Try this compound next: Cc1cc(N)c2cc(NC(=O)/C=C/c3ccccc3Cl)ccc2n1
*A* 4

*Q* Try this compound next: Cc1cc(N)c2cc(NC(=O)Nc3ccc4nc(C)cc(N)c4c3)ccc2n1 [AMINOQUINURIDE]
*A* 15

---

For each of the compounds below, state its log10 of IC50.
- system.under.test: C5a anaphylatoxin chemotactic receptor 1 (Homo sapiens)
- Sequence (P21730 whole entry): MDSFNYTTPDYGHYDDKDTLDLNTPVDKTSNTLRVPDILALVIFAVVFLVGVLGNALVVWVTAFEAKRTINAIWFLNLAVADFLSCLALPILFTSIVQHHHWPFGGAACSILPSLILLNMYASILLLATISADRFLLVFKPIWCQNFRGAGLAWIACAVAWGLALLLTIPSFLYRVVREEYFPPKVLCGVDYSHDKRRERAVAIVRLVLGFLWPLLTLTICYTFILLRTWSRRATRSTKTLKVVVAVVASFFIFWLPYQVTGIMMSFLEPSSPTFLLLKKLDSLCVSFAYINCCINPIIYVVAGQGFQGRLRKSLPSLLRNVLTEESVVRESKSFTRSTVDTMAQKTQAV
- assay.details: Ability to inhibit binding of radiolabeled C5a anaphylatoxin to intact membrane bound receptor from human neutrophils.
Scale type: logarithmic (base 10). Underlying IC50 unit: µM.

*Q* Name the reported log10 of IC50 value associated with the compound Cc1cc(N)c2cc(NC(=O)/C=C/c3c(Cl)cccc3Cl)ccc2n1
*A* 1.33

*Q* Try this compound next: Cc1cc(N)c2cc(NC(=O)c3ccc4ccccc4c3)ccc2n1
*A* 1.96

*Q* Try this compound next: CCCCCCCC(=O)Nc1ccc2nc(C)cc(N)c2c1
*A* 2.00

*Q* Try this compound next: Cc1cc(N)c2cc(NC(=O)/C=C/c3ccccc3C(F)(F)F)ccc2n1
*A* 1.38

*Q* Try this compound next: Cc1cc(N)c2cc(NC(=O)/C=C/c3ccccc3Cl)ccc2n1
*A* 1.55

*Q* Try this compound next: Cc1cc(N)c2cc(NC(=O)CC(=O)Nc3ccc4nc(C)cc(N)c4c3)ccc2n1
*A* 1.64

*Q* Try this compound next: Cc1cc(N)c2cc(NC(=O)/C=C/c3ccccc3)ccc2n1
*A* 2.00

*Q* Try this compound next: Cc1cc(N)c2cc(NC(=O)Nc3ccc4nc(C)cc(N)c4c3)ccc2n1 [AMINOQUINURIDE]
*A* 0.95

*Q* Try this compound next: Cc1cc(N)c2cc(NC(=O)/C=C/c3ccc(C(F)(F)F)cc3)ccc2n1
*A* 1.27

*Q* Try this compound next: Cc1cc(N)c2cc(NC(=O)/C=C/c3cccc(C(F)(F)F)c3)ccc2n1
*A* 1.03

*Q* Try this compound next: Cc1cc(N)c2cc(NC(=O)C(=O)Nc3ccc4nc(C)cc(N)c4c3)ccc2n1
*A* 0.70

---

- Species on record: Homo sapiens
- assay.details: Compound was tested for the inhibition of fMLF- induced human neutrophil activation
- Assay type: functional
reported.endpoint: EC50 (µg/mL)
Give your result in µg/mL as a bare value.

*Q* Name the reported EC50 value associated with the molecule Cc1cc(N)c2cc(NC(=O)/C=C/c3c(Cl)cccc3Cl)ccc2n1
*A* 4

*Q* Try this molecule next: Cc1cc(N)c2cc(NC(=O)/C=C/c3ccccc3C(F)(F)F)ccc2n1
*A* 4

*Q* Try this molecule next: Cc1cc(N)c2cc(NC(=O)/C=C/c3ccccc3Cl)ccc2n1
*A* 5
